# test.system: hD1 receptor (Homo sapiens)
# Construct: expressed in transfected cells
# Sequence (P21728 whole entry): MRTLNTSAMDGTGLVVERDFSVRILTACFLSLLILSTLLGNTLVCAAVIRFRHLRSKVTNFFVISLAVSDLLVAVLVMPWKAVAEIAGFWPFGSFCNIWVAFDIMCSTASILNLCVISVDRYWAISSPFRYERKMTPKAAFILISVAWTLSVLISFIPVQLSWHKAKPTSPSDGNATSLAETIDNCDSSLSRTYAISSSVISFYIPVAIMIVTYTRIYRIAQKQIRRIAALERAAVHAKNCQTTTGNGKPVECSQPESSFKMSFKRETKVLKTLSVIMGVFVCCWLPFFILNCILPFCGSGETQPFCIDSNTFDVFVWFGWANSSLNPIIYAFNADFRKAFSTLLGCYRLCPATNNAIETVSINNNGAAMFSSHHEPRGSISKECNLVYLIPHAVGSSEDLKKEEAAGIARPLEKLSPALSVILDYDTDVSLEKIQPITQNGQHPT
# experiment.summary: Intracellular [cAMP], CRE-luciferase reporter gene assay, HEK293-hD1 cells
# Assay type: cell-based
# experimental.setup: read-out: IC50 [cAMP] hD1 (antagonist)
endpoint: pIC50
// scale note: pIC50 = -log10(conc_M); give the bare number

What value of pIC50 has been reported for the following compound? CN1CCc2ccccc2Cc2[nH]c3ccccc3c2CC1 [LE300]
6.91

====

# test.system: hD1 receptor (Homo sapiens)
# Construct: expressed in transfected cells
# experiment.summary: Radioligand competition binding at hD1 receptors (cell membranes)
# experimental.setup: 0.2 nM [3H]SCH23390, Krebs-HEPES buffer pH 7.4, n = 3; read-out: Ki (Krebs-HEPES) hD1
endpoint: pKi
pKi is defined as minus the log10 of a concentration measured in mol/L.

// query pKi value for entry CN1CCc2ccccc2Cc2[nH]c3ccccc3c2CC1 [LE300]
8.00

====

# test.system: hD1 receptor (Homo sapiens)
# Construct: expressed in transfected cells
# experiment.summary: Intracellular [Ca2+] fluorescence assay, HEK293-hD1 cells
# Type: cell-based
# experimental.setup: read-out: IC50 [Ca2+] hD1 (antagonist)
endpoint: IC50
In your response, put the unit directly after the numeric value.

State the recorded IC50 for this entry: CN1CCc2ccccc2Cc2[nH]c3ccccc3c2CC1
718 nM
